test: NCI Yeast Anticancer Drug Screen. Data for the rad50 strain (AID 155);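 note: 0% = growth of vehicle-only cultures of the same strain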; details: S. cerevisiae rad50 strain growth inhibition; at 1.2 µM; active compounds read high
Compounds without any hit were thinned out: in the full panel of roughly 79,000, 15% have a hit.
Measured growth inhibition by item
Reply with just the number (in %).

[[record]]
compound = "CC1=NN(C(=O)c2ccccc2O)C(=O)/C1=C/c1ccco1"
endpoint_unit = "%"
observed_measurement = -3

[[record]]
compound = "Cc1cccc(/C=N/NC(=S)NC2CCCCC2)n1"
endpoint_unit = "%"
observed_measurement = -7

[[record]]
compound = "COC(=O)C1=C(C(=O)OC)CC(n2nnc(C(=O)OC)c2C(=O)OC)=CC1"
endpoint_unit = "%"
observed_measurement = -1

[[record]]
compound = "Cc1oc2ccccc2c(=O)c1Cn1nnc2ccccc21"
endpoint_unit = "%"
observed_measurement = -3

[[record]]
compound = "O=C1CCC(Cc2ccccc2)CN1 (stereo unspecified)"
endpoint_unit = "%"
observed_measurement = -1

[[record]]
compound = "CCN(CC)CCNc1ccc2nc(C)n3c4ccc(O)cc4c(=O)c1c23"
endpoint_unit = "%"
observed_measurement = 42

[[record]]
compound = "CCC(C)(C)c1ccc(Oc2ccccc2)c(N)c1"
endpoint_unit = "%"
observed_measurement = -33

[[record]]
compound = "O=C(Oc1ccc([N+](=O)[O-])cc1)c1ccc([N+](=O)[O-])cc1"
endpoint_unit = "%"
observed_measurement = 9

[[record]]
compound = "CC(C)OP(=O)(OC(C)C)/C(Cl)=N/Nc1ccc([N+](=O)[O-])cc1"
endpoint_unit = "%"
observed_measurement = -10

[[record]]
compound = "COc1cc([N+](=O)[O-])c2ncccc2c1Br"
endpoint_unit = "%"
observed_measurement = 15


--- query ---
Suppose we examine the compound CC(=O)Oc1ccc2c(c1)Cc1cc(N3C(=O)C=CC3=O)ccc1-2 ; what growth inhibition value has been reported? 7

###

test: NCI Yeast Anticancer Drug Screen. Data for the rad50 strain (AID 155);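 note: 0% = growth of vehicle-only cultures of the same strain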; conditions: S. cerevisiae rad50 strain growth inhibition; at 100.0 µM; active compounds read high
This is part of a sample that, as a whole, favours compounds with a hit. Of some 79,000 tested, about 15% had one in any assay.
assay metric: growth inhibition (%)
Reply with just the number (in %).

Examples with answers:
[[record]]
compound = "O=C1Nc2ccc(Br)cc2C1=Nc1cccnc1"
observed_measurement = -13

[[record]]
compound = "OC(c1ccccc1)(c1ccccc1)c1nccc2ccccc12"
observed_measurement = 70

[[record]]
compound = "CCN(CC)CCC(=O)Nc1ccc2sc3ccccc3c(=O)c2n1"
observed_measurement = 91

[[record]]
compound = "CNC(=O)OCc1c2ccncc2c(C)c2c1[nH]c1ccccc12"
observed_measurement = 82

[[record]]
compound = "Cc1nc2sc3c(c2c(=O)o1)CCCC3"
observed_measurement = 5


--- query ---
Suppose we examine the compound O=C(/N=N/C(=O)Oc1ccccc1)Oc1ccccc1 ; what growth inhibition value has been reported? 45

###

assay: NCI Yeast Anticancer Drug Screen. Data for the rad52 strain (AID 147);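 note: 0% = growth of vehicle-treated control cultures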; conditions: S. cerevisiae rad52 mutant growth inhibition; at 100.0 µM
Compounds without any hit were thinned out: in the full panel of roughly 79,000, 15% have a hit. Calls of active or inactive are those of the source. Rule as the data show it: active = growth inhibition above about 70%; inactive = the rest.
Outcome field: choose from active, inactive

[[record]]
compound = "CC1(C)CC(=O)C(C=NC(=S)C(N)=S)=C(O)C1"
class_label = "inactive"

[[record]]
compound = "O=C(NCCCCN1CC2CCCC2C1)C(C1CCCCC1)C1CCCCC1 (stereo unspecified)"
class_label = "active"

[[record]]
compound = "S=C1C(=Nc2ccccc2)N(c2ccccc2)/C(=N\\c2ccccn2)N1c1ccccc1"
class_label = "active"


Hi, sorry to bother you, what did the test record for Cc1cc(O)c(C(C)C)cc1SC#N ? active

Hi, sorry to bother you, what did the test record for COc1ccc(-c2cc(-c3cc(C)cc(Cl)c3O)nc3[nH]c(=S)[nH]c(=S)c23)cc1 ? active

Hi, sorry to bother you, what did the test record for Cc1oc2ccccc2c(=O)c1Cn1nnc2ccccc21 ? inactive

###

assay: NCI Yeast Anticancer Drug Screen. Data for the bub3 strain (AID 167); conditions: S. cerevisiae bub3 mutant strain, at 3.7 µM, active compounds read high
This is part of a sample that, as a whole, favours compounds with a hit. Of some 79,000 tested, about 15% had one in any assay. Residues, ends and D or L forms follow the SMILES beside them. *: point of attachment. Fmoc = O=C(OCC1c2ccccc2-c2ccccc21)*; Boc = CC(C)(C)OC(=O)*
Measured growth inhibition by item
Reply with just the number (in %).

[[record]]
compound = "CC(=O)O/N=C1C=C/C(=C(/C#N)c2ccccc2)C=C/1C"
observed_measurement = -11


Suppose we examine the compound O=C(Nc1cccs1)c1ccccc1 ; what growth inhibition value has been reported? -9

Suppose we examine the compound Cc1cc(C)c(S(=O)(=O)c2ccc(Cl)cc2)c(C)c1 ; what growth inhibition value has been reported? 4

Suppose we examine the compound Cc1ccc(S(=O)(=O)N/N=C/C(Br)=C(/Br)C(=O)O)cc1 ; what growth inhibition value has been reported? 1

Suppose we examine the compound O=C1C2=C(c3ccccc31)C(c1ccccc1)N1C(=O)CSC1=N2 (stereo not drawn) ; what growth inhibition value has been reported? 17

Suppose we examine the compound COc1ccc(C2CC(C)(N3CCCC3)Oc3cc4c(cc32)OCO4)cc1 (stereo not drawn) ; what growth inhibition value has been reported? 5

Suppose we examine the compound O=C(NCCCCN(CCCNC(=O)C(F)(F)F)Cc1ccccc1)C(F)(F)F ; what growth inhibition value has been reported? 0

Suppose we examine the compound OC(c1ccccc1)(c1ccccc1)c1nccc2ccccc12 ; what growth inhibition value has been reported? 22

Suppose we examine the compound COc1cc([C@@H]2c3cc4c(cc3[C@@H](NC(=O)NO)[C@H]3COC(=O)[C@H]23)OCO4)cc(OC)c1O ; what growth inhibition value has been reported? -3

Suppose we examine the compound CC(C)OC(=O)NNc1cc(Cl)ccc1Cl ; what growth inhibition value has been reported? -1

Suppose we examine the compound CCOC(=O)/C(=C/c1cccc(Cl)c1)N(CC)CC ; what growth inhibition value has been reported? 18

Suppose we examine the compound CC(C)(C)OC(=O)NCCCCC(NC(=O)C(Cc1c[nH]c2ccccc12)NC(=O)OCC1c2ccccc2-c2ccccc21)C(=O)O (stereo not drawn) (Fmoc-Trp-Lys(Boc)-OH; configuration not given here) ; what growth inhibition value has been reported? -1

Suppose we examine the compound NC(CS)C(=O)NCCNc1ccc(NCCNC(=O)C(N)CS)c2c1C(=O)c1c(O)ccc(O)c1C2=O (stereo not drawn) ; what growth inhibition value has been reported? -21

Suppose we examine the compound CCCCCCCCCCCCCCN ; what growth inhibition value has been reported? 7

Suppose we examine the compound CCC(/C=C/c1ccccc1)=N\Nc1ccc(Cl)c(Cl)c1 ; what growth inhibition value has been reported? 2

Suppose we examine the compound CCC(=O)Nc1ccc(N=NN(C)C)cc1 ; what growth inhibition value has been reported? -8

Suppose we examine the compound CCOC(=O)/C(=C\c1cccc(C)c1)C(C)=O ; what growth inhibition value has been reported? 14

###

assay: NCI Yeast Anticancer Drug Screen. Data for the mlh1 strain (AID 171);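 note: 0% = growth of vehicle-treated control cultures of the same strain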; details: S. cerevisiae mlh1 strain growth inhibition; at 3.7 µM; active compounds read high
The panel holds about 79,000 compounds, 15% with a hit somewhere; the sample as a whole holds those more often.
Measured growth inhibition by item
Reply with just the number (in %).

Examples with answers:
[[record]]
molecule = "O=C1CSC(c2ccccc2)N1c1ccc(-c2ccc(-n3c(-c4ccccc4)nc4ccccc4c3=O)cc2)cc1 (stereo unspecified)"
observed_measurement = -2

[[record]]
molecule = "CCOC(=O)Nc1ccc(C)c(NC(=O)OCC)c1"
observed_measurement = 8

[[record]]
molecule = "Cc1ccc(NC(=O)CCC(=O)C(C)C(=O)c2ccccc2)c(C)c1 (stereo unspecified)"
observed_measurement = -1

[[record]]
molecule = "CC(C)C(c1ccccc1)c1ccccc1"
observed_measurement = 0

[[record]]
molecule = "COc1cc2c(cc1OC)[C@@H](Nc1ccc(C#N)cc1)C1COC(=O)[C@@H]1C2c1cc(OC)c(O)c(OC)c1 (stereo partly specified)"
observed_measurement = 9


Suppose we examine the molecule CC(C)(Br)C(=O)/C=C/c1ccccc1 ; what growth inhibition value has been reported? 4

Suppose we examine the molecule O=P(C(=S)Nc1c(Cl)cccc1Cl)(c1ccccc1)c1ccccc1 ; what growth inhibition value has been reported? 10

Suppose we examine the molecule CCOC(=O)/C(=C\c1ccc(F)cc1)C(C)=O ; what growth inhibition value has been reported? 42

Suppose we examine the molecule CCCCN(CCC#N)c1ccc(/C=C/c2ccnc3ccccc23)cc1 ; what growth inhibition value has been reported? -6

Suppose we examine the molecule CCc1c(Cl)c(C)c(Cl)c(O)c1Cl ; what growth inhibition value has been reported? -8

Suppose we examine the molecule CC(=O)CC(c1ccccc1)c1c(O)c2ccccc2oc1=O (stereo unspecified) ; what growth inhibition value has been reported? -3
